- Test Target: PRPF40A N-ext-WW12 (residues 56–236) (Homo sapiens)
- Construct: WW12long 141–248, and N-ext-WW12 56–236; 6xHis-TEV site (N, cleaved yes); made in house; host or cells: Escherichia coli BL21(DE3)
- Assay Procedure: ITC of N-terminally extended WW12 with SF1 peptides
- Type: binding
- Measurement Parameters: ITC, SF1 peptides, individual value 1 (replicate 1); read-out: Kd Values with Nter Ext WW12, individual value
pKd: −log10 of the molar value.

Entry Sequence	pKd
PPLPPGAPPPPPPPPP [SF1WWbs]	5.04

###

- Test Target: PRPF40A Mut N-ExtWW12 (Homo sapiens, UniProt O75400, L125A/P123A/P126A/P127A/P78A/P79A/P81A/V80A)
- Construct: WW12long 141–248, and N-ext-WW12 56–236; 6xHis-TEV site (N, cleaved yes); made in house; host or cells: Escherichia coli BL21(DE3)
- Assay Procedure: ITC of mutant N-ext-WW12 (PPVP/PALPP motifs changed to alanine) with SF1WWbs
- Format: binding
- Measurement Parameters: ITC, 25 °C, 20 mM sodium phosphate pH 6.5, 100 mM NaCl; GB1-tagged SF1 16-mer; N-ext-WW12 with PPVP/PALPP changed to alanine; at least duplicates; read-out: Kd
pKd: −log10 of the molar value.

Entry Sequence	pKd
PPLPPGAPPPPPPPPP [SF1WWbs]	5.66
